Molecular target: CO in intact RBL-1 cells (Rattus norvegicus, UniProt Q63921)
Construct: 5-LO and CO in intact RBL-1 cells; endogenous in cells
Sequence (Q63921 27-602): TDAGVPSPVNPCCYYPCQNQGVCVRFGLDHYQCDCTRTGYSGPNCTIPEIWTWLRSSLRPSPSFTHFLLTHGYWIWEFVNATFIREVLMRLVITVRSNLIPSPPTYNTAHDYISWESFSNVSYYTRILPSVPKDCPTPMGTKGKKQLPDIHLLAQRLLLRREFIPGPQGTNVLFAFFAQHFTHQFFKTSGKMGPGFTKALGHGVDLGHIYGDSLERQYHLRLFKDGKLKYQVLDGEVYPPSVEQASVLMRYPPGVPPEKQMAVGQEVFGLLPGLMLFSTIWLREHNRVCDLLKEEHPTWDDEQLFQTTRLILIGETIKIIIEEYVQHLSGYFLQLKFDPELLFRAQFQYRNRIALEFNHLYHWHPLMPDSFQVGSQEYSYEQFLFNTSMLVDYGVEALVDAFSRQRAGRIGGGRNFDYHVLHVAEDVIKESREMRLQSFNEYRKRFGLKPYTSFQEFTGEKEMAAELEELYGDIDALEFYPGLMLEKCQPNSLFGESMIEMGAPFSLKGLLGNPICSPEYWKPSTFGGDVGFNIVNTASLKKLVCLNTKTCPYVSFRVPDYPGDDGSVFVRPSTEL
Experiment: Procedure III: inhibition of CO in intact RBL-1 cells
I'd appreciate it if you could supply pIC50 values for the items below.
Scale: negative log10 of molar concentration, which is what pIC50 denotes.

Problem: What value of measured pIC50 is listed for COc1ccc(-n2nc(CCOC(=O)N(O)C(C)C)cc2-c2ccc(C)cc2)cc1 ?
Result: 7.40

Problem: Could you tell me which pIC50 is on file for COc1ccc(-n2nc(COC(=O)NO)c(Cl)c2-c2ccc(Cl)cc2)cc1 ?
Result: 5.66

Problem: I am curious: what pIC50 value has been reported for COc1ccc(-n2nc(COC(=O)NO)c(Br)c2-c2ccc(Cl)cc2)cc1 ?
Result: 5.62

Problem: What value of pIC50 has been recorded for this entry: COc1ccc(-n2nc(COC(=O)N(O)C(C)C)c(Cl)c2-c2ccc(Cl)cc2)cc1
Result: 5.71

Problem: // lookup pIC50 for COc1ccc(-n2nc(CCOC(=O)N(O)C(C)C)c(Cl)c2-c2ccc(Cl)cc2)cc1
Result: 5.82

Problem: Which pIC50 value is on record for COc1ccc(-n2nc(COC(=O)N(O)C(C)C)c(Br)c2-c2ccc(Cl)cc2)cc1 ?
Result: 5.72

Problem: Entry COc1ccc(-n2nc(CCCOC(=O)N(C)O)c(Cl)c2-c2ccc(Cl)cc2)cc1 has what pIC50?
Result: 5.64

Problem: What does the record list as pIC50 for COc1ccc(-n2nc(CCOC(=O)N(C)O)c(Cl)c2-c2ccc(C)cc2)cc1 ?
Result: 6.20

Problem: Entry COc1ccc(-n2nc(COC(=O)NO)cc2-c2ccc(C)cc2)cc1 : reported pIC50 = ?
Result: 6.77
